- Study target: Cannabinoid receptor 1 (Homo sapiens)
- Sequence (P21554 whole entry): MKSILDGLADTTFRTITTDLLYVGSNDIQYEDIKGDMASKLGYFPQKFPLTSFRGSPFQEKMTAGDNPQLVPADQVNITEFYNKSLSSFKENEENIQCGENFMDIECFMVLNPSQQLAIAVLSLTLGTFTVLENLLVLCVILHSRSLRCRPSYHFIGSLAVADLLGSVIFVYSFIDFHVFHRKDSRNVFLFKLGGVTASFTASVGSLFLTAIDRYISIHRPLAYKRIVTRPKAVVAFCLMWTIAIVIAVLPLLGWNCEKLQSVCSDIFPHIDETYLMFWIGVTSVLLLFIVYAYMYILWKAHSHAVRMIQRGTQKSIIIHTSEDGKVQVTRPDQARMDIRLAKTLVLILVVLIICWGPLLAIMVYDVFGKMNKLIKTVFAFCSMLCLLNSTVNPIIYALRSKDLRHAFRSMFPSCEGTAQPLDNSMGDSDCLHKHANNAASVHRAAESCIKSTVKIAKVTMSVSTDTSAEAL
- Test method notes: Agonist activity at human CB1-receptor expressed in CHO-K1 cells coexpressing G-alpha16 assessed as maximum efficacy by Fluo-4-AM dye based calcium mobilization assay relative to CP55940
- Format: cell-based
// NO strictly below 70% in Emax; YES otherwise

Worked examples, 5 compounds total:
{"columns": ["Smiles", "Label value"],
 "data": [
  ["CCCCCn1cc(C(=O)NC23CC4CC(CC(C4)C2)C3)c2ncccc21", "NO"],
  ["O=C(NC12CC3CC(CC(C3)C1)C2)c1nn(CCN2CCOCC2)c2ccccc12", "YES"],
  ["CCCCCn1cc(C(=O)NC23CC4CC(CC(C4)C2)C3)c2cnccc21", "NO"],
  ["O=C(NC12CC3CC(CC(C3)C1)C2)c1cc2cccnc2n1CCN1CCOCC1", "YES"],
  ["O=C(NC12CC3CC(CC(C3)C1)C2)c1n[nH]c2ccccc12", "NO"]
]}

Q: Entry CCCCCn1cc(C(=O)NC23CC4CC(CC(C4)C2)C3)c2cccnc21 : is its Emax no less than 70%?
Ans: NO

Q: Entry CCCCCn1nc(C(=O)NC23CC4CC(CC(C4)C2)C3)c2ccccc21 : is its Emax no less than 70%?
Ans: YES
